The values you see were collected from paper PMC7696255.

We begin with a simple list: items and their reported IC50.
Biological target: S. aureus sortase A (Staphylococcus aureus)
Construct: purchased AnaSpec AS-72229
Sequence (Q2FV99 whole entry): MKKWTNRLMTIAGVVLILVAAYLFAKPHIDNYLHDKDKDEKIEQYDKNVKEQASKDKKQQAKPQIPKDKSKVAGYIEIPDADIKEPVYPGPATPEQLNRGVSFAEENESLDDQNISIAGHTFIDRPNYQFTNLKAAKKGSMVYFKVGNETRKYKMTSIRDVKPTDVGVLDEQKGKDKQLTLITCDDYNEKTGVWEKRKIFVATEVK
Experiment: SrtA enzyme inhibition FRET assay, 5-FAM/QXL 520 substrate
Format: biochemical
Details: Sortase A IC50, 5-FAM/QXL substrate; 10 min
recorded_endpoint: IC50 (µM)

>  <compound>
CC(/C=C/[C@@]1(C)[C@H](C)CCC(=O)[C@@H]1C)=C\Cc1c(O)c(Cl)c(C)c(C=O)c1O

>  <recorded_endpoint>
IC50

>  <operator>
>

>  <recorded_number>
200

$$$$
>  <compound>
Cc1cc(O)c2c(c1)C(=O)c1c(c(O)cc(O)c1-c1c(O)cc(O)c3c1C(=O)c1cc(C)cc(O)c1C3=O)C2=O

>  <recorded_endpoint>
IC50

>  <operator>
=

>  <recorded_number>
31

$$$$
>  <compound>
O=C(/C=C/c1ccc(O)c(O)c1)O[C@@H]1C[C@](O)(C(=O)O)C[C@@H](O)[C@H]1O [Chlorogenic acid, reference compound]

>  <recorded_endpoint>
IC50

>  <operator>
=

>  <recorded_number>
144

$$$$
>  <compound>
CC(C)CCCc1c(O)ccc(C(=O)c2cc(Cl)c(Cl)[nH]2)c1O

>  <recorded_endpoint>
IC50

>  <operator>
=

>  <recorded_number>
32

$$$$
